Target: PI3K (Homo sapiens)
Sequence (P42336 whole entry): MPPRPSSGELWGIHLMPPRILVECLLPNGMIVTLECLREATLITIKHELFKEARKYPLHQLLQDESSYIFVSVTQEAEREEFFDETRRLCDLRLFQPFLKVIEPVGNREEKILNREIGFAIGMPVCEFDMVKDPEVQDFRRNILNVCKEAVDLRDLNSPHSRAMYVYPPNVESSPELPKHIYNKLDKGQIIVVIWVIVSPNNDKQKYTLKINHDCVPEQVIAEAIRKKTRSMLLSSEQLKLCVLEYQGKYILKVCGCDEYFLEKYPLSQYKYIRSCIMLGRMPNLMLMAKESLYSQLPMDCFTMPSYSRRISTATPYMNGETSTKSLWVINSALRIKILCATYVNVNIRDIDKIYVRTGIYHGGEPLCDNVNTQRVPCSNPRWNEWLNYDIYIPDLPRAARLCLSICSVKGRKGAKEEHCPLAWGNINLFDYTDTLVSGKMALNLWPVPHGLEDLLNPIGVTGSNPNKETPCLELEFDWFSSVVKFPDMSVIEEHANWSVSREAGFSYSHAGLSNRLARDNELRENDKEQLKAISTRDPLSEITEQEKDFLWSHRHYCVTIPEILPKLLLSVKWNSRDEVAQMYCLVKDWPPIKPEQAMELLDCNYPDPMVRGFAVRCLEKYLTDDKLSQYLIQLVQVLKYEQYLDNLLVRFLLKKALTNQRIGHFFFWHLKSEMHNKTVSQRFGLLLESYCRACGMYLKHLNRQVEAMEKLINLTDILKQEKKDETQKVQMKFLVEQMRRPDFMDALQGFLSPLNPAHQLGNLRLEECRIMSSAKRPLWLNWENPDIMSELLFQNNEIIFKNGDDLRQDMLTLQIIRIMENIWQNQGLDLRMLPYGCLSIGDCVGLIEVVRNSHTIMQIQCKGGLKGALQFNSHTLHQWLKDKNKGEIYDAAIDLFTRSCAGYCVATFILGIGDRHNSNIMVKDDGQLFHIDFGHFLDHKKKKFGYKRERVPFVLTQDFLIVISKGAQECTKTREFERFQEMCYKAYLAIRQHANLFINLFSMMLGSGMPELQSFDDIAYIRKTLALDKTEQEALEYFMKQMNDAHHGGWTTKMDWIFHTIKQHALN
Sequence (P27986 whole entry partner): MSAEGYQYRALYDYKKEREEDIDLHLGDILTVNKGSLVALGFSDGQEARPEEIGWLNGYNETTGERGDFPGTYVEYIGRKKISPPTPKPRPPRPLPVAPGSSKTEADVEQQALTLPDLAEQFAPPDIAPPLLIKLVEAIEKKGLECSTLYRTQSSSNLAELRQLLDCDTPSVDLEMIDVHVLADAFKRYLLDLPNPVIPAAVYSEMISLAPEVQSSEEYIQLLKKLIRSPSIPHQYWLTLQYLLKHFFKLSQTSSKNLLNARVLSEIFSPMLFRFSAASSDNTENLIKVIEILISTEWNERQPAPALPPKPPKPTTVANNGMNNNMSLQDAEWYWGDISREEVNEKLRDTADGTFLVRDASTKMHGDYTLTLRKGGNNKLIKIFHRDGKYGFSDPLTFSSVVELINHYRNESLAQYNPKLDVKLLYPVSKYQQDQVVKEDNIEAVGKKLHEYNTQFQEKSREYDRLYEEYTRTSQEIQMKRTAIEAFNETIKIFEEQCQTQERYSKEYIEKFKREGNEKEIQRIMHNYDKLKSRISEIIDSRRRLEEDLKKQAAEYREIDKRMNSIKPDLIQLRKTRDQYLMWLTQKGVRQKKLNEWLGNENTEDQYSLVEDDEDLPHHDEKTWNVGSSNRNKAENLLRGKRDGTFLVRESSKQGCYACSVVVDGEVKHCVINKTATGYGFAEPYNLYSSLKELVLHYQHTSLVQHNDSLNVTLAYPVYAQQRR
Experiment: Fluorescence polarization assay for PI3K
Assay type: biochemical
Settings: PI3Kα; read-out: PI3Kα IC50
pIC50: −log10 of the molar value.
observation type: pIC50

Look over these answered cases.
molecule="CC(=O)Nc1ccc(-c2nc(N3CCOCC3)c3cnn(C4CCN(C(=O)c5cccnc5)CC4)c3n2)cc1 [Example 221]" observation_type=pIC50 meas_value=6.06
molecule="CNC(=O)Nc1ccc(-c2nc(N3CCOCC3)c3cnn(C4CCN(C(=O)Nc5cccnc5)CC4)c3n2)cc1 [Example 335]" observation_type=pIC50 meas_value=7.52
molecule="FC(F)(F)CN1CCC(n2ncc3c(N4CCOCC4)nc(-c4ccc5[nH]ccc5c4)nc32)CC1 [Compound 471]" observation_type=pIC50 meas_value=5.54

I = O=C(NCCF)Nc1ccc(-c2nc(N3CCOCC3)c3cnn(C4CCN(CC(F)(F)F)CC4)c3n2)cc1
II = Fc1ccc(CN2CCC(n3ncc4c(N5CCOCC5)nc(-c5ccc6[nH]ccc6c5)nc43)CC2)cn1
III = NC(=O)CN1CCC(n2ncc3c(N4CCOCC4)nc(-c4ccc5[nH]ccc5c4)nc32)CC1 [Compound 245]
IV = CNCCNC(=O)Nc1ccc(-c2nc(N3CCOCC3)c3cnn(C4CCN(Cc5cccnc5)CC4)c3n2)cc1 [Example 342]
Qu. Rank ascending by pIC50. List each label, following the requested order.
Ans. III, I, II, IV
(III: 5.58, I: 5.95, II: 6.44, IV: 7.54)

* * *

Test system: breast line MDA468
Test: In vitro cell culture growth assay (MTS), MDA468
Format: cell-based, human
Details: Homo sapiens, 72 h, MDA468 cells, three days after drug treatment
Measured IC50 of individual entries
Give just the number in nM; leave the unit off.

Look over these answered cases.
compound="O=C(Nc1ccccc1)Nc1ccc(-c2nc(N3CCOCC3)c3cnn(C4CCN(C(=O)c5ccccc5)CC4)c3n2)cc1 [Compound 623]" observation_type=IC50 meas_value=50
compound=COC(=O)Nc1ccc(-c2nc(N3CCOCC3)c3cnn(C4CCN(C(=O)c5cccnc5)CC4)c3n2)cc1 observation_type=IC50 meas_value=1200

Qu. Report IC50 for O=C(NCCc1ccccc1)Nc1ccc(-c2nc(N3CCOCC3)c3cnn(C4CCN(Cc5ccccc5)CC4)c3n2)cc1 [Compound 505] please.
Ans. 20000

Qu. Report IC50 for C=CCONC(=O)Nc1ccc(-c2nc(N3CCOCC3)c3cnn(-c4ccccc4)c3n2)cc1 [Compound 296] please.
Ans. 60000

Qu. Report IC50 for CNC(=O)Nc1ccc(-c2nc(N3CCOCC3)c3cnn(C4CCC(O)CC4)c3n2)cc1 (stereo not shown) [Compound 568] please.
Ans. 240

Qu. Report IC50 for `O=C(Nc1ccc(-c2nc(N3CCOCC3)c3cnn(C4CCNCC4)c3n2)cc1)Nc1cccnc1` please.
Ans. 900

Qu. Report IC50 for `CNCCOC(=O)N1CCC(n2ncc3c(N4CCOCC4)nc(-c4ccc(NC(=O)NC)cc4)nc32)CC1` please.
Ans. 5500

* * *

Target: PI3K (Homo sapiens)
Test: Fluorescence polarization assay for PI3K;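 further: PI3K kinase reaction on PIP2 with ATP, 30-60 min, product sensed by GST-GRP with red probe in fluorescence polarization (mP), controls without enzyme and at zero time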
Type: biochemical
Details: PI3Kα; read-out: PI3Kα IC50
observation type: IC50 (nM)

compound=NCc1ccc(-c2nc(N3CCOCC3)c3cnn(-c4ccccc4)c3n2)cc1 meas_value=457
compound="CNC(=O)Nc1ccc(-c2nc(N3CCOCC3)c3cnn(C4CCN(Cc5ccc(OC)nc5)CC4)c3n2)cc1 [Compound 574]" meas_value=33
compound="CNC(=O)Nc1ccc(-c2nc(N3CCOCC3)c3cnn(C4CCN(C(=O)c5cnccn5)CC4)c3n2)cc1 [Compound 666]" meas_value=198
compound=CCn1ncc2c(N3CCOCC3)nc(-c3cccc(O)c3)nc21 meas_value=18
compound="CC(=O)Nc1ccc(-c2nc(N3CCOCC3)c3cnn(C4CCCCO4)c3n2)cc1 (stereo not drawn) [Compound 925]" meas_value=1650
compound=O=C(c1ccc(Cl)cc1)N1CCC(n2ncc3c(N4CCOCC4)nc(-c4cccc(O)c4)nc32)CC1 meas_value=41
compound="COC(=NC#N)Nc1ccc(-c2nc(N3CCOCC3)c3cnn(C4CCN(Cc5cccnc5)CC4)c3n2)cc1 [Example 410]" meas_value=593
compound="CNC(=O)Nc1ccc(-c2nc(N3CCOCC3)c3cnn(C4CCN(Cc5ccc(Cl)nc5)CC4)c3n2)cc1 [Example 388]" meas_value=47

a = CNC(=O)Nc1ccc(-c2nc(N3CCOCC3)c3cnn(C4CCSCC4)c3n2)cc1
b = CONC(=O)Nc1ccc(-c2nc(N3CCOCC3)c3cnn(C4CCN(C(=O)c5cccnc5)CC4)c3n2)cc1 [Compound 553]
c = COC(=O)N1CCC(n2ncc3c(N4CCOCC4)nc(-c4ccc(NC(=O)Nc5ccccn5)cc4)nc32)CC1
d = O=C(NCCF)Nc1ccc(-c2nc(N3CCOCC3)c3cnn(C4CCN(Cc5cccnc5)CC4)c3n2)cc1F [Compound 619]
e = COC(=O)N1CCC(n2ncc3c(N4CCOCC4)nc(-c4ccc(NC(=O)OCCF)cc4)nc32)CC1
Qu. Rank ascending by IC50. List each label, following the requested order.
Ans. a, d, c, b, e
(a: 47 nM, d: 619 nM, c: 1150 nM, b: 1810 nM, e: 2950 nM)

I = COC(=O)Nc1ccc(-c2nc(N3CCOCC3)c3cnn(C4CCN(Cc5ccc(F)cc5)CC4)c3n2)cc1 [Compound 694]
II = COC(=O)N1CCC(n2ncc3c(N4CCOCC4)nc(-c4ccc(NC(=O)Nc5ccc(F)cc5F)cc4)nc32)CC1
Qu. Field: lower recorded IC50 (choose I or II ) Indicate which entry you chose by stating its label.
Ans. II

1 = COC(=O)N1CCC(n2ncc3c(N4CCOCC4)nc(-c4ccc(NC(=O)OCCO)cc4)nc32)CC1
2 = Oc1cccc(-c2nc(N3CCOCC3)c3cnn(C4CCN(Cc5ccco5)CC4)c3n2)c1
3 = CNC(=O)Nc1ccc(-c2nc(N3CCOCC3)c3cnn(C4CCN(Cc5ccccc5)CC4)c3n2)cc1F
4 = CN(C)C(=O)N1CCC(n2ncc3c(N4CCOCC4)nc(-c4ccc5[nH]ccc5c4)nc32)CC1
5 = COC(=O)Nc1ccc(-c2nc(N3CCOCC3)c3cnn(C4CCN(C(=O)c5ccccc5OC)CC4)c3n2)cc1 [Example 446]
Qu. Kindly order the items shown according to IC50, from the highest value down. List each label, following the requested order.
Ans. 4, 5, 1, 3, 2

A = COC(=O)Nc1ccc(-c2nc(N3CCOCC3)c3cnn(C4CCN(CC(=O)c5ccccc5)CC4)c3n2)cc1 [Compound 457]
B = CNC(=O)Nc1ccc(-c2nc(N3CCOCC3)c3cnn(C4CCN(C(=O)c5cccc(C)c5)CC4)c3n2)cc1 [Example 366]
C = O=C(NCc1ccco1)Nc1ccc(-c2nc(N3CCOCC3)c3cnn(C4CCN(Cc5cccnc5)CC4)c3n2)cc1
D = O=C(Nc1ccc(-c2nc(N3CCOCC3)c3cnn(C4CCNCC4)c3n2)cc1)Nc1ccccn1
E = O=C(Nc1ccc(-c2nc(N3CCOCC3)c3cnn(C4CCN(C(=O)c5ccccc5)CC4)c3n2)cc1)Nc1cccnc1 [Compound 624]
Qu. Kindly order the items shown according to IC50, from the highest value down. List each label, following the requested order.
Ans. A, C, D, B, E
